Test system: H1975 (lung adenocarcinoma, DM, L828R/T790M)
test method notes: Antiproliferative activity on H1975 cells (Alamar Blue)
Assay type: cell-based
experimental parameters: selectivity index, A549 vs H1975 cells
Grouping by measured SI IC50(A549)/IC50(DM) is done with the following cut points: lo: < 100; med: ≥ 100 and < 600; hi: ≥ 600

Hey, which category is C=CC(=O)Nc1cc(Nc2cc(C(=O)c3ccc(N(C)C)cc3)ccn2)c(OC)cc1N(C)CCN(C)C.O=C(O)C(F)(F)F in, do you know?
med

Hey, which category is C=CC(=O)Nc1cc(Nc2cc(C(=O)c3ccc(-c4cnn(C)c4)cc3)ccn2)c(OC)cc1N(C)CCN(C)C in, do you know?
lo

Hey, which category is C=CC(=O)Nc1cc(Nc2cc(C(=O)c3ccc(N4CCCC4)cc3)ccn2)c(OC)cc1N(C)CCN(C)C in, do you know?
med

Hey, which category is C=CC(=O)Nc1cc(Nc2nccc(C(=O)c3ccc(N4CCN(C)CC4)cc3OC)n2)c(OC)cc1N(C)CCN(C)C in, do you know?
hi

Hey, which category is C=CC(=O)Nc1cc(Nc2nccc(C(=O)c3ccc(OC)cc3)n2)c(OC)cc1N(C)CCN(C)C in, do you know?
med

Hey, which category is C=CC(=O)Nc1cc(Nc2nccc(C(=O)c3ccc(OC)cc3OC(C)C)n2)c(OC)cc1N(C)CCN(C)C in, do you know?
lo

Hey, which category is C=CC(=O)Nc1cc(Nc2cc(C(=O)c3ccccc3)ccn2)c(OC)cc1N(C)CCN(C)C in, do you know?
med

Hey, which category is C=CC(=O)Nc1cc(Nc2nccc(C(=O)c3ccc(N4CC[C@@H](O)C4)cc3)n2)c(OC)cc1N(C)CCN(C)C in, do you know?
hi

Hey, which category is C=CC(=O)Nc1cc(Nc2cc(C(=O)c3ccc(N(CC)CC)cc3)ccn2)c(OC)cc1N(C)CCN(C)C in, do you know?
med

Hey, which category is C=CC(=O)Nc1cc(Nc2nccc(C(=O)c3ccc(N4CCC(OC)CC4)cc3)n2)c(OC)cc1N(C)CCN(C)C in, do you know?
hi

Hey, which category is C=CC(=O)Nc1cc(Nc2nccc(C(=O)c3cccc(F)c3)n2)c(OC)cc1N(C)CCN(C)C in, do you know?
lo

----------
test method notes: Permeability through monolayer of Caco-2 cells
Type: in vitro ADME
experimental parameters: human; Caco-2 monolayer; Papp B-A/Papp A-B
Give measured efflux ratio at 2 h, 10 µM for each item. Keep answers brief.
I'd appreciate a reply containing only the number, no unit.

Data request, read-out efflux ratio at 2 h, 10 µM, for C=CC(=O)Nc1cc(Nc2cc(C(=O)c3ccc(N(C)C)cc3)ccn2)c(OC)cc1N(C)CCN(C)C.O=C(O)C(F)(F)F
2

Data request, read-out efflux ratio at 2 h, 10 µM, for C=CC(=O)Nc1cc(Nc2nccc(C(=O)c3ccccc3C(F)(F)F)n2)c(OC)cc1N(C)CCN(C)C
1.29

Data request, read-out efflux ratio at 2 h, 10 µM, for C=CC(=O)Nc1cc(Nc2nccc(C(=O)c3ccc(OCCC)cc3)n2)c(OC)cc1N(C)CCN(C)C
0.5

Data request, read-out efflux ratio at 2 h, 10 µM, for C=CC(=O)Nc1cc(Nc2cc(C(=O)c3ccc(N4CCCC4)cc3)ccn2)c(OC)cc1N(C)CCN(C)C
1.7
